assay: TNF-a-driven NF-kB reporter inhibitors, primary screen, selectivity assay for NOD1/NOD2 signaling inhibitor project, cell-based, HEK293T NF-kB-Luc, luminescence (AID 1852); conditions: TNF-a induced, 14 h, at 4 µM
Among all 2,500 compounds or so, about 1,100 (44%) were called active.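 Rule for the calls: active = inhibition above 50% at 4 µM in the single-point screen; inactive = inhibition of 50% or less.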 So high a share suggests a set chosen from earlier hits. The list shows a part of the results.
Entry note: the call must match one of active, inactive

{"compound": "CS(=O)(=O)c1ccc2nc(NC(=O)c3cccc(NS(=O)(=O)c4ccc(F)c(F)c4)c3)sc2c1", "label.class": "inactive"}

Exam item: Answer briefly: the call reported for C=CC[n+]1c(-c2ccc(Cl)cc2Cl)csc1Nc1c(C)n(C)n(-c2ccccc2)c1=O in this assay.
Marked response: inactive

Exam item: Short answer needed: outcome of this test for CCN(CC)CCNC(=O)c1ccc(NC(=O)C2CCN(c3ncnc4sc(C)c(C)c34)CC2)cc1 ?
Marked response: inactive

Exam item: // outcome(item) with item = CCOC(=O)N=Nc1c2ccccc2c2nc3no[nH]c3nc12
Marked response: active

Exam item: Hey, what did the test say about COc1ccc(Oc2ccccc2/C=N/O)cc1 ?
Marked response: active

Exam item: Hey, what did the test say about Cc1cc(C(=O)COc2cccnc2[N+](=O)[O-])c(C)n1Cc1ccco1 ?
Marked response: inactive

Exam item: Recorded test outcome, item Nc1ccc(S(=O)(=O)Nc2nccc(/C=C/c3cccc(Br)c3)n2)cc1
Marked response: inactive

Exam item: # fetch the recorded call for CCOC(=O)c1sc(N2C(=O)C(O)=C(C(=O)c3ccco3)C2c2ccco2)nc1C (stereo unspecified) here
Marked response: active

Exam item: What is the recorded call for this compound in the test? CCc1ccn2cc(-c3ccc4c(c3)OCO4)nc2c1
Marked response: inactive

Exam item: Answer briefly: the call reported for C/C(=N\Nc1ncnc2sc(C)c(C)c12)c1ccccn1 in this assay.
Marked response: active

Exam item: What outcome does the record of this test show for Cc1nc2ccc(NS(=O)(=O)c3ccc(C)c(C)c3)cc2s1 ?
Marked response: inactive

====

test: TNF-a-driven NF-kB reporter inhibitors, primary screen, selectivity assay for NOD1/NOD2 signaling inhibitor project, cell-based, HEK293T NF-kB-Luc, luminescence (AID 1852); details: TNF-a induced, 14 h, at 4 µM, stronger effect = higher value
About 1,100 (44%) of roughly 2,500 compounds were called active. So high a share suggests a set chosen from earlier hits. Some of the results follow.
Use condition met when the recorded inhibition is no lower than 60%; use condition not met when it is lower.

{"compound": "COc1ccc2c(C#N)c3ccccn3c2c1", "label.class": "condition met"}
{"compound": "Cc1cccc(-c2nc(CSc3nc4c(c(=O)[nH]3)CCC4)c(C)o2)c1", "label.class": "condition not met"}
{"compound": "COc1ccc2c(c1)oc(=O)c1ccccc12", "label.class": "condition not met"}
{"compound": "c1ccc(-c2csc(Nc3ccc4c(c3)OCCO4)n2)cc1", "label.class": "condition not met"}
{"compound": "Cc1ccc(C2=NOC(=O)/C2=C\\C=C\\c2ccccc2)cc1", "label.class": "condition met"}
{"compound": "COc1cc(Cl)c(C)cc1NC(=O)CN(C)Cc1cccc(OC)c1OC", "label.class": "condition not met"}

Exam item: Please tell me: is the compound Cc1c(C(=O)N/N=C/c2c(O)ccc3ccccc23)nnn1-c1nonc1N at or over 60% in terms of inhibition?
Marked response: condition met

Exam item: Does the compound COc1ccc(-c2cc(=O)oc3c(C)c(O)ccc23)cc1 have recorded inhibition that is 60% or more?
Marked response: condition met

Exam item: Item O=C(Nc1ccc(-c2cn3ccsc3n2)cc1)c1ccc(F)c(S(=O)(=O)N2CCOCC2)c1 with inhibition of 60% or above?
Marked response: condition not met

Exam item: Would you say O=C(NCc1ccccc1)C1CCCN1S(=O)(=O)c1ccc(F)cc1 (configuration not stated) shows inhibition at minimum 60%?
Marked response: condition not met

Exam item: Hello, I need to know if CC(=O)N(Cc1ccc(F)cc1)C1=C(NCCc2ccccc2)C(=O)c2ccccc2C1=O has measured inhibition not below 60%. Thanks!
Marked response: condition met

Exam item: State whether the measured inhibition reaches 60%, counting equality as reaching it, for N#Cc1c2ccc(O)cc2n2ccccc12
Marked response: condition met

Exam item: Is it the case that CC(=O)N(Cc1ccc(F)cc1)C1=C(NCc2ccccc2)C(=O)c2ccccc2C1=O has inhibition reaching or exceeding 60%?
Marked response: condition met

Exam item: For this compound, is measured inhibition 60% or higher? COc1ccc(-c2cc(=O)oc3c(C)c(OC(=O)c4cccs4)ccc23)cc1
Marked response: condition met

Exam item: State whether the measured inhibition reaches 60%, counting equality as reaching it, for C/C(=N\NC(=O)c1nnn(-c2nonc2N)c1CN1CCc2ccccc21)c1ccccc1O
Marked response: condition met

Exam item: Identify whether the reported inhibition of the following compound is 60% or greater: Cc1c(O)ccc2c(-c3ccccc3)cc(=O)oc12
Marked response: condition not met

Exam item: Tell me whether inhibition is at least 60% here: COc1cccc(NC(=O)CN(C)CC(=O)Nc2ccc(C)c([N+](=O)[O-])c2)c1
Marked response: condition not met

Exam item: Item O=C(/C=C/c1ccc2c(c1)OCO2)Nc1nc(-c2ccccc2)cs1 with inhibition of 60% or above?
Marked response: condition met

Exam item: API: above_or_equal(metric=inhibition, cutoff=60%) for item O=C1ON=C(c2ccc(Cl)cc2)/C1=C/c1ccc(O)cc1
Marked response: condition not met

Exam item: Identify whether the reported inhibition of the following compound is 60% or greater: O=C(Nc1nc(-c2ccc3c(c2)OCO3)cs1)c1ccncc1
Marked response: condition not met

Exam item: Would you say CS(=O)(=O)c1ccc(S(=O)CC(=O)OCc2ccccc2)c([N+](=O)[O-])c1 (configuration not stated) shows inhibition at minimum 60%?
Marked response: condition not met
